biological target: panel of 255 wild-type kinases (Homo sapiens); test: Kinase panel profiling at 1 µmol/L (MSA or IMAP), percentage inhibition; format: biochemical; conditions: kinase TNIK; 1 µmol/L single concentration; read-out: %-inhibition at 1 µmol/L, TNIK
For each record, write down the corresponding inhibition at 1 µM.

Past entries and their recorded results:
[[record]]
smiles_entry = "Cn1cnc2c(F)c(Nc3ccc(Br)cc3F)c(C(=O)NOCCO)cc21"
result_value = "0.137%"

[[record]]
smiles_entry = "COc1cc2ncnc(Nc3ccc(F)c(Cl)c3)c2cc1NC(=O)/C=C/CN1CCCCC1"
result_value = "27%"


// below: inhibition at 1 µM requested for another compound
Item: `COC(=O)N[C@@H](C)CNc1nccc(-c2cn(C(C)C)nc2-c2cc(Cl)cc(NS(C)(=O)=O)c2F)n1` | inhibition at 1 µM: 14%

* * *

biological target: panel of 255 wild-type kinases (Homo sapiens); assay: Kinase panel profiling at 1 µmol/L (MSA or IMAP), percentage inhibition; format: biochemical; settings: BRSK1 kinase assay; 1 µmol/L single concentration; read-out: %-inhibition BRSK1
PROPERTY NAME: inhibition at 1 µM (%)
Give bare numbers, in %.

Past entries and their recorded results:
[[record]]
smiles_entry = "CCN1CCN(c2ccc(Nc3cc(N(C)C(=O)Nc4c(Cl)c(OC)cc(OC)c4Cl)ncn3)cc2)CC1"
measurement_target = "panel of 255 wild-type kinases (Homo sapiens)"
property_name = "inhibition at 1 µM"
result_value = 1.2

[[record]]
smiles_entry = "CO[C@]1(C(=O)N[C@@H](C)c2ccc(-n3cc(F)cn3)nc2)CC[C@H](c2nc(C)cc(Nc3cc(C)[nH]n3)n2)CC1"
measurement_target = "panel of 255 wild-type kinases (Homo sapiens)"
property_name = "inhibition at 1 µM"
result_value = 12

[[record]]
smiles_entry = "C=CC(=O)N1CCC([C@@H]2CCNc3c(C(N)=O)c(-c4ccc(Oc5ccccc5)cc4)nn32)CC1"
measurement_target = "panel of 255 wild-type kinases (Homo sapiens)"
property_name = "inhibition at 1 µM"
result_value = -1.87

[[record]]
smiles_entry = "O=C(Nc1cnn2ccc(N3CCC[C@@H]3c3cc(F)ccc3F)nc12)N1CC[C@H](O)C1"
measurement_target = "panel of 255 wild-type kinases (Homo sapiens)"
property_name = "inhibition at 1 µM"
result_value = -0.915

[[record]]
smiles_entry = "CCc1nc(C(N)=O)c(Nc2ccc(N3CCC(N4CCN(C)CC4)CC3)c(OC)c2)nc1NC1CCOCC1"
measurement_target = "panel of 255 wild-type kinases (Homo sapiens)"
property_name = "inhibition at 1 µM"
result_value = 23


For the 2 molecules below, give their inhibition at 1 µM values.
1. Cc1cc(Nc2ncnc3ccc(NC4=NC(C)(C)CO4)cc23)ccc1Oc1ccn2ncnc2c1
2. CCn1c(=O)c(-c2cc(NC(=O)Nc3ccccc3)c(F)cc2Br)cc2cnc(NC)cc21

1. 0.339
2. 1.77

* * *

test system: 134 cancer cell lines; assay: Cell viability assay (ATPlite, 72 hours), IC50 on cancer cell line panel; conditions: Homo sapiens, HuTu80, read-out: IC50 in cell proliferation assay
For each record, write down the corresponding IC50.
Give bare numbers, in µM.

[[record]]
molecule = "C[C@H]1Oc2cc(cnc2N)-c2c(nn(C)c2C#N)CN(C)C(=O)c2ccc(F)cc21 [lorlatinib]"
measurement_target = "134 cancer cell lines"
value_units = "µM"
result_value = 7.5


Lab note: molecule CCn1c(=O)c(-c2cc(NC(=O)Nc3ccccc3)c(F)cc2Br)cc2cnc(NC)cc21 [ripretinib] tested on 134 cancer cell lines; recorded IC50 was 1.58
